Reference source for all entries: patent US20260242478A1

Listed next: entries and their corresponding Anti-CD28 Fab signal (phage binding ELISA).
measured target: T1, Anti-CD28 Fab (SEQ ID NOs: 696, 697)
T1 construct: Biotinylated and captured on neutravidin coated plates in the phage ELISA
T1 sequence (VH, as listed by the source, chain 1 of 2): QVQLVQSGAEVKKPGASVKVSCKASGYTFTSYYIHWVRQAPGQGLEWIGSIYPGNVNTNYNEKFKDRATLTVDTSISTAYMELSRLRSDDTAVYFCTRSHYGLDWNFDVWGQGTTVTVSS
T1 sequence (VL, as listed by the source, chain 2 of 2): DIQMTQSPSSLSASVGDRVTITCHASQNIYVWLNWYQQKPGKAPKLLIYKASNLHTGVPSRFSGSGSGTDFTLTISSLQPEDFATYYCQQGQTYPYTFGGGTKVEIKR
test protocol: phage ELISA; biotinylated anti-CD28 Fab on neutravidin plate, clonal phage supernatant, anti-M13 HRP
reported endpoint: Anti-CD28 Fab signal (phage binding ELISA)

| binder | obs value |
| --- | --- |
| YCAGHSAQYMWKCL [Phage-1240] | 0.92 |
| YCDGHIPQYVEKCL [Phage-1235] | 0.94 |
| YCDGHSFEYMAKCL [Phage-1241] | 0.92 |
| YCDGHHAEYMWKCL [Phage-1238] | 0.93 |
| YCVGHSPEYIWKCL [Phage-1243] | 0.92 |
